Biological target: angiotensin II receptor (rat uterine membranes)
Test: Angiotensin II binding assay (125I-angiotensin II, rat uterine membranes)
Conditions: IC50; 125I-AII, rat uterine membranes, 25° C., 30 min
Method: Other chemicals were obtained from Sigma Chemical Co. Rat uterine membranes were prepared from fresh tissue. All procedures were carried out at 4° C. […] The reaction was initiated by the addition of 50 μg of membrane protein and the mixture was incubated at 25° C. for 30 min. […] Filters were assayed for radioactivity in a Micromedic gamma counter. […] Specific binding was calculated as total binding minus nonspecific binding. Binding data was analyzed by a nonlinear least-squares curve fitting program.
pIC50: −log10 of the molar value.
metric: pIC50

Example entries begin here.
CCCCCc1nc2cc(C)c(=O)c(C)cc2n1Cc1ccc(-c2ccccc2C(=O)O)cc1 [Example 6] | 5.60
CCCc1nc2ccc(=O)ccc2n1Cc1ccc(-c2ccccc2C(=O)O)cc1 [Example 5] | 5.85

a: CCCCc1nc2cc(C(C)C)c(=O)c(-c3ccccc3)cc2n1Cc1ccc(-c2ccccc2C(=O)O)cc1 [Example 10]
b: CCCCc1nc2cc(-c3ccccc3)c(=O)c(-c3ccccc3)cc2n1Cc1ccc(-c2ccccc2C(=O)O)cc1 [Example 7]
**Query** Hi! Which is lower in terms of pIC50, the first one a or the second one b ? Let me know the label of the one you choose.
**Result** a
(a: 5.70, b: 6.10)
